Where do these numbers come from? They come from the supplement of paper PMC7125110.

Listed here: items and their measured self-cleavage kobs at 640 uM GlcN6P.
B1: glmS ribozyme (parent)
chain: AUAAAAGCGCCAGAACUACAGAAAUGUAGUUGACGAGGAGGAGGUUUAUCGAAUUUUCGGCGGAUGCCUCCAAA

- Variants of: B1
- assayComment: self-cleavage kobs at 640 uM GlcN6P; higher = faster cleavage; RNA array
- measurementSetup: with glucosamine-6-phosphate
Variants at the floor of the assay were thinned out.
Just the number please, in s⁻¹, no unit attached.

# annotated cases, reported self-cleavage kobs at 640 uM GlcN6P shown
# variant G13A C50G ; its self-cleavage kobs at 640 uM GlcN6P = 0.000253

# self-cleavage kobs at 640 uM GlcN6P (variant: A14C G32A ) is 0.0014

More entries:
Entry A12U C71U ; self-cleavage kobs at 640 uM GlcN6P = 0.0214

Field self-cleavage kobs at 640 uM GlcN6P (entry U30G G37A A53G ) reads 0.000102

// self-cleavage kobs at 640 uM GlcN6P value for G26U A42U : 6.28e-05
